Can you tell me z-score for the items I'm about to list?
assay: PSAC antagonists in infected red cells, primary screen, cell-based, P. falciparum Indochina, OD700, 18 h (AID 1157); conditions: P. falciparum Indochina infected erythrocytes, osmotic lysis OD700, 18 h; higher = more signal, called active from +8 up or from −8 down
The source made the active and inactive calls.

In: Give its z-score value. Item: CC1(C)O[C@H]2OC([C@H](O)CON3C(=O)c4ccccc4C3=O)[C@H](O)[C@H]2O1 (some centres undefined)
Out: -0.266 (inactive)

In: Fill in the blank: the reported z-score of CCOC(=O)[C@H](CC(C)C)NC(=O)CCC1CC(OC(=O)NCCc2ccc(F)cc2)CC2(CCCC(COC(=O)NCc3cccc(C(F)(F)F)c3)O2)O1 (some centres undefined) is ____.
Out: 0.127 (inactive)

In: Reported z-score, compound COC(=O)[C@@H]1CC[C@H](C)[C@@H](c2ccc(Br)cc2)N1C(=O)C(F)(F)F : ____
Out: 0.2 (inactive)

In: Name the recorded z-score for CC(=O)OC[C@H]1O[C@H](CC=NOC(C)CN2CCCc3nc(C)c(C)cc32)C=C[C@@H]1OC(C)=O (some centres undefined) .
Out: 0.588 (inactive)

In: Return reported z-score; argument: CC(=O)OC[C@H]1O[C@@H](ON=C2[C@H]3CCn4c(=O)n(-c5ccccc5)c(=O)n4[C@H]3[C@H](O)[C@@H]3O[C@H]23)[C@H](OC(C)=O)[C@@H](OC(C)=O)[C@@H]1OC(C)=O
Out: 0.465 (inactive)

In: Recorded z-score of CCOC(=O)NN=C1C[C@@H](O)[C@@H](O)[C@@H]2[C@@H]3C(=O)N(CC)C(=O)[C@@H]3CC[C@H]12 , please.
Out: 0.182 (inactive)

In: Quick check: z-score of C[C@H]1CC[C@@H](C(=O)O)N[C@@H]1c1cccc(N2CCCC2=O)c1 ?
Out: 0.125 (inactive)

In: Consider the compound CCOC(=O)CCN1C(=O)[C@H]2[C@H]3[C@H](O)[C@H](O)CC(=O)[C@@H]3CC[C@H]2C1=O and give its measured z-score.
Out: 0.305 (inactive)

In: Given the compound CC=CC1=C(CO)[C@H](O)[C@H]2O[C@H]2[C@@H]1O , what is its reported z-score?
Out: 0.172 (inactive)

In: Data request, read-out z-score, for CC(=O)OC[C@H]1O[C@H](CC=NO[C@H](C)c2cn([C@@H]3COC[C@H]3O)nn2)C=C[C@@H]1OC(C)=O
Out: -1.7 (inactive)

In: Could you tell me which z-score is on file for CC(CCC(=O)OC[C@H]1O[C@H](C#Cc2ccccc2)C=C[C@@H]1Oc1ccc(C)cc1)=NOC[C@@H](C)[C@H](OCc1ccccc1)C(C)C ?
Out: 0.392 (inactive)

In: Quick check: z-score of O=C1[C@H]2[C@H]3[C@H](O)[C@H](O)CC(=NOC[C@@H](O)COCc4ccco4)[C@@H]3CC[C@H]2C(=O)N1c1cccc(Oc2ccccc2)c1 ?
Out: 0.157 (inactive)

In: Which z-score reading was recorded for the compound COc1ccc(COC(=O)NN=C2C[C@@H](O)[C@@H](O)[C@@H]3[C@@H]4C(=O)N(Cc5ccccc5)C(=O)[C@@H]4CC[C@@H]23)cc1 ?
Out: 0.648 (inactive)

In: Which z-score is listed for COC(=O)[C@H](C)NC(=O)CCC1CC(OC(=O)NCc2cccc3ccccc23)CC2(CCCC(COC(=O)NCc3ccccc3)O2)O1 (some centres undefined) ?
Out: 0.0533 (inactive)

In: Name the recorded z-score for COC(=O)[C@H](C)NC(=O)CCC1CC(OC(=O)NCc2cccc3ccccc23)CC2(CCCC(COC(=O)NCc3cccc(C(F)(F)F)c3)O2)O1 (some centres undefined) .
Out: -1.23 (inactive)

In: z-score lookup needed for COc1ccc(COC(=O)NN=C2C[C@@H](O)[C@@H](O)[C@@H]3[C@@H]4C(=O)N(c5cccc(Oc6ccccc6)c5)C(=O)[C@@H]4CC[C@H]23)cc1 , thanks.
Out: -2.15 (inactive)

In: I have this compound here, CC(CCN1CCCc2nc(C)c(C)cc21)=NO[C@@H](C)c1cn([C@H](CO)Cc2ccccc2)nn1 , and I need its recorded z-score.
Out: 0.392 (inactive)

In: Item under review: COc1ccc(O[C@H]2C=C[C@@H](c3ccccc3)O[C@@H]2CO)cc1 . Reported z-score?
Out: 0.64 (inactive)

In: Quick one: z-score of COC(=O)[C@H](C)NC(=O)CCC1CC(OC(=O)NCc2cccc3ccccc23)CC2(CCCC(COC(=O)NCCC(C)C)O2)O1 (some centres undefined) ?
Out: 0.197 (inactive)

In: I have this compound here, CO[C@@H]1C=CCC(=O)N[C@@H](C)C(=O)OC[C@@H](OC)[C@H](C)C=CCC(=O)OC[C@H]1C , and I need its recorded z-score.
Out: 0.205 (inactive)

In: Please look up its z-score: O=C1[C@H]2[C@H]3[C@H](O)[C@H](O)CC(=NO[C@@H]4O[C@H](CO)[C@@H](O)[C@H](O)[C@H]4O)[C@H]3CC[C@H]2C(=O)N1C[C@@H]1CCCO1
Out: 0.353 (inactive)

In: Entry COc1ccc(COC(=O)NN=C2C[C@@H](O)[C@@H](O)[C@@H]3[C@@H]4C(=O)N(C(C)(C)C)C(=O)[C@@H]4CC[C@@H]23)cc1 has what z-score?
Out: -0.0118 (inactive)

In: Param item = COC(=O)[C@@H]1CC[C@H](C)[C@@H](c2ccc(C)cc2)N1C(=O)c1ccc(C=NOC[C@@H](O)[C@H]2O[C@@H]3OC(C)(C)O[C@@H]3[C@H]2O)cc1 ; retrieve measured z-score.
Out: 0.342 (inactive)

In: State the recorded z-score for this entry: CC(C)CON=C1C[C@@H](O)[C@@H](O)[C@@H]2[C@@H]3C(=O)N(Cc4ccc5c(c4)OCO5)C(=O)[C@@H]3CC[C@@H]12
Out: 0.548 (inactive)

In: Data request, read-out z-score, for CO[C@H]1C[C@@H]2C[C@H](O)CC(CC(=O)O[C@@H](C=CCC(C)C)C[C@@H]3CC[C@H](C)[C@@H](C1)O3)O2
Out: -0.0957 (inactive)

In: Report z-score for CC(C)=CCCC(C)=CCON=C1C[C@@H](O)[C@@H](O)[C@@H]2[C@@H]3C(=O)N(c4cccc(Oc5ccccc5)c4)C(=O)[C@@H]3CC[C@H]12 please.
Out: 0.722 (inactive)

In: Need z-score, item CCN1C(=O)[C@H]2[C@H]3[C@H](O)[C@H](O)CC(=NNC(=O)OCc4ccccc4)[C@H]3CC[C@H]2C1=O
Out: 0.0338 (inactive)

In: Requested read-out: z-score. Entry: C=CC[C@@H]1C=C[C@H](ON=C(C)CCN2CCCc3nc(C)c(C)cc32)[C@@H](CO)O1
Out: 0.562 (inactive)

In: I have this compound here, COc1ccc(O[C@H]2C=C[C@@H](c3ccccc3)O[C@@H]2COC(=O)NCc2cccc3ccccc23)cc1 , and I need its recorded z-score.
Out: 0.515 (inactive)

Entry source: PubChem BioAssay
